assay: NCI Yeast Anticancer Drug Screen. Data for the bub3 strain (AID 167); conditions: S. cerevisiae bub3 mutant strain, at 50.0 µM, stronger effect = higher value
This is part of a sample that, as a whole, favours compounds with a hit. Of some 79,000 tested, about 15% had one in any assay.
Test Readout: growth inhibition (%)
Form entry: value (%) — number only.

Quick note, growth inhibition for COc1ccccc1N=Nc1c(-c2ccccc2)nn(C(=O)CC(=O)Nc2cccc(C)c2)c1-c1ccccc1 landed at 52.5

---
Note to self: growth inhibition recorded for COc1ccc2cc1Oc1ccc(cc1)CC1c3cc(c(OC)cc3CCN1C)Oc1c(O)c(OC)cc3c1C(C2)N(C)CC3 (stereo unspecified) was 15.8

Memo: Oc1cc(CN2CCOCC2)c(O)c(CN2CCOCC2)c1CN1CCOCC1 , reported growth inhibition: -1.05

Item: Cc1c(C)c2c(c(C)c1Cl)CC2(Cl)Cl | growth inhibition: -5.55

----------
experiment: NCI Yeast Anticancer Drug Screen. Data for the bub3 strain (AID 167); conditions: S. cerevisiae bub3 mutant strain, at 50.0 µM, stronger effect = higher value
About 79,000 compounds went through this panel and 15% of them were active in at least one assay; those are over-represented in the sample as a whole.
Test Readout: growth inhibition (%)
Give the value in % but do not write % after it.

Lab note: measured growth inhibition of O=S(=O)(Nc1cccc(F)c1)c1ccc(F)cc1 was -9.95

Data point: O=C(NC(=S)Nc1ccc([N+](=O)[O-])cc1Cl)c1ccccc1F ; growth inhibition = 24.1

// growth inhibition value for CCCCCCCC/C=C/CCCCCCCC(=O)O : -16.2

Lab book: growth inhibition of CCC(=O)OCCN(C)C noted as -19.3

Input O=C(Nc1ccc(S(=O)(=O)/N=c2\ncccn2C(=O)C(C(F)(F)F)C(F)(F)F)cc1)C(C(F)(F)F)C(F)(F)F . Output growth inhibition: 28.4

growth inhibition reported for this molecule O=C(O)c1cccc([N+](=O)[O-])c1C(=O)O : -1.9

Reported growth inhibition for O=C(O)c1cc([N+](=O)[O-])ccc1Oc1cccc([N+](=O)[O-])c1 was 2.95

Entry OCCN(Cc1ccccc1)C(c1ccccc1)c1ccccc1 , growth inhibition reported as 98.5

More entries:
Form: molecule = COc1cccc(C=NC23CC4CC(CC(C4)C2)C3)c1 ; growth inhibition = 6.85

// CCCCCCCCCC1=C(C#N)C(=O)OCCN1C : growth inhibition value = -11.4

For this molecule ( COC(=O)C1=C(C(=O)OC)C2CCCOC2=C(C)C1 (configuration not stated) ), measured growth inhibition is 14.3

So, CCC(C)(O)CCc1ccccc1 (configuration not stated) ? Its growth inhibition was -36.3

According to the records, this molecule C/C=C/C1OCC(C)(C)CO1 displays growth inhibition of -24.7

// recorded growth inhibition for CC(=O)N1CCNC(c2ccccc2)C1(C)C (configuration not stated) : -13.4

----------
Listing: growth inhibition of selected molecules
experiment: NCI Yeast Anticancer Drug Screen. Data for the sgs1 mgt1 strain (AID 161);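 further: 0% = growth of cultures given vehicle only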; conditions: S. cerevisiae sgs1 mgt1 strain, at 50.0 µM, stronger effect = higher value
The panel holds about 79,000 compounds, 15% with a hit somewhere; the sample as a whole holds those more often.
The figure you give is taken to be in %; do not add the unit.

Examples with answers:
GET /value?item= C/C=C(\CC)C(C#N)O[Si](C)(C)C (stereo not drawn) &field=growth inhibition returns 1.45

growth inhibition measured on Clc1cccc[n+]1CCc1ccccc1 = 5.3

Query CC(=O)C(=Cc1c[nH]c2ccccc12)C(C)=O yields growth inhibition of 38.4

Continuing:
Input N#CC(Cc1ccccc1)C(=O)O (stereo not drawn) . Output growth inhibition: -5.35

// recorded growth inhibition for COc1ccc(CNc2ccccc2)cc1OC : -3

molecule NC(=O)C1CC(O)CC(C(N)=O)O1 (stereo not drawn) , growth inhibition observed: -9.55

get_value(item= CC(C(=O)c1ccccc1)C(c1ccccc1)N1CCOCC1 (stereo not drawn) , readout=growth inhibition) returns -16.3

Recorded growth inhibition (molecule FC(F)(F)c1nc(=S)c2cn[nH]c2[nH]1 ): 8.45

growth inhibition for COc1cc(C(=O)OCCOC(=O)c2ccc(O)c(OC)c2)ccc1O is 25.4

The molecule listed as c1ccc(-c2ccccc2NC2=NCCO2)cc1 shows growth inhibition equal to 2.2

Record Cc1cc(C)n(/N=C/c2ccco2)c(=O)c1C#N , field growth inhibition: -26.1

Notebook: CNC(=O)NC1C(CO)OC2OC(C)(C)OC21 (stereo not drawn) , growth inhibition read as 10.4

Value of measured growth inhibition for the entry Clc1ccccc1SSc1ccccc1Cl : 22.2
